Reference for the values: patent US20260116991A1

Below, each entry is listed with its recorded OD450 nm.
tested-target: monkey GPC3-His protein (monkey)
assay-summary: ELISA, monkey GPC3-His coated; antibody 0.53 nM
Kindly provide the number alone.

>  <binder>
hAb003LH3L1a (antibody, human IgG1, V domains shown) VH: EVQLVQSGAEVKKPGSSVKVSCKASGYRFTDYEMHWVRQAPGQGLEWMGTIDPETGNTAYTQKFMDRVTLTADKSTSTAYMELSSLRSEDTAVYYCTRGYSFTYWGQGTLVTVSS VL: DIVMTQTPLSLPVTPGEPASISCRSSQNIVHSDGNTYLQWYLQKPGQSPQLLIFKVSNRFSGVPDRFSGSGSGTDFTLKISRVEAEDVGVYYCFQGSHVPFTFGQGTKLEIK

>  <OD450 nm>
2.21

$$$$

Query binder follows.
Sample hAb005LH3L1b (antibody, human IgG1, V domains shown) VH: EVQLVQSGAEVKKPGASVKVSCKASGYTFTDYEMHWVRQAPGQGLEWIGAIDPETGNTAYIQKFKGRATLTTDKSTSTAYMELRSLRSDDTAVYYCTRFYSYSHWGQGTTVTVSS VL: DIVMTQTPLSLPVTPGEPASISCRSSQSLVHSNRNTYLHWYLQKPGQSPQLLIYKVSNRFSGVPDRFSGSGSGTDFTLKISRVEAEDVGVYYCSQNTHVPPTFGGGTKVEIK ; OD450 nm observed: 1.27
